Carbonic anhydrase 2 (Homo sapiens, UniProt P00918): recorded Ki for assorted molecules
Provide the reading as a plain figure in nM.

>  <molecule>
NS(=O)(=O)c1nnc(NC(=O)c2ccc(Cl)c(S(N)(=O)=O)c2)s1

>  <value units>
nM

>  <Ki>
10

$$$$
>  <molecule>
NC(=O)C[C@H](NC(=O)c1ccc(Cl)c(S(N)(=O)=O)c1)C(=O)O

>  <value units>
nM

>  <Ki>
275

$$$$
>  <molecule>
NS(=O)(=O)c1ccc(C(=O)N[C@H](C(=O)O)C(O)c2ccccc2)cc1 (some centres not stated)

>  <value units>
nM

>  <Ki>
21

$$$$
>  <molecule>
NS(=O)(=O)c1cc(C(=O)NCC(=O)NCC(=O)O)ccc1Cl

>  <value units>
nM

>  <Ki>
85

$$$$
>  <molecule>
CC(C)C[C@H](NC(=O)c1ccc(S(N)(=O)=O)cc1)C(=O)O

>  <value units>
nM

>  <Ki>
53

$$$$

Task item: API: value(readout= Ki, system= Carbonic anhydrase 2 (Homo sapiens, UniProt P00918), query= "NS(=O)(=O)c1ccc(C(=O)N[C@@H](Cc2c[nH]cn2)C(=O)NCC(=O)O)cc1" )
Reply: 10

Task item: Please state recorded Ki (tested on Carbonic anhydrase 2 (Homo sapiens, UniProt P00918)) of "NS(=O)(=O)c1ccc(C(=O)NCC(=O)NCC(=O)O)cc1"
Reply: 42

Task item: What value of Ki on Carbonic anhydrase 2 (Homo sapiens, UniProt P00918) does "NS(=O)(=O)c1ccc(C(=O)Nc2nnc(S)s2)cc1" have?
Reply: 5

Task item: Return Ki measured with Carbonic anhydrase 2 (Homo sapiens, UniProt P00918) given this molecule: "NS(=O)(=O)c1ccc(C(=O)NCCC(=O)N[C@@H](Cc2c[nH]cn2)C(=O)O)cc1"
Reply: 16

Task item: I'm curious: which Ki was measured for "NS(=O)(=O)c1cc(C(=O)N[C@@H](CCC(=O)O)C(=O)O)ccc1Cl" tested on Carbonic anhydrase 2 (Homo sapiens, UniProt P00918)?
Reply: 340

Task item: Query the reported Ki for Carbonic anhydrase 2 (Homo sapiens, UniProt P00918); item: "NS(=O)(=O)c1ccc(C(=O)NCC(=O)O)cc1"
Reply: 85

Task item: State its Ki on Carbonic anhydrase 2 (Homo sapiens, UniProt P00918): "C[C@H](NC(=O)c1ccc(Cl)c(S(N)(=O)=O)c1)C(=O)N[C@@H](Cc1ccccc1)C(=O)O"
Reply: 44

Task item: Please tell me: Ki of "NS(=O)(=O)c1cc(C(=O)N[C@@H](Cc2c[nH]cn2)C(=O)O)ccc1Cl" , system Carbonic anhydrase 2 (Homo sapiens, UniProt P00918)?
Reply: 210

Task item: Provide the documented Ki with Carbonic anhydrase 2 (Homo sapiens, UniProt P00918) as the system for "NS(=O)(=O)c1cc(C(=O)Nc2nnc(S)s2)ccc1Cl"
Reply: 11

Task item: Request body: readout Ki, system Carbonic anhydrase 2 (Homo sapiens, UniProt P00918), query CCC(C)[C@H](NC(=O)c1ccc(S(N)(=O)=O)cc1)C(=O)O (single isomer, unassigned) . Return the value.
Reply: 48

Task item: Item: "NS(=O)(=O)c1ccc(NC(=O)c2ccc(Cl)c(S(N)(=O)=O)c2)cc1" Test system: Carbonic anhydrase 2 (Homo sapiens, UniProt P00918) Read-out: Ki Value: ?
Reply: 30

Task item: For Carbonic anhydrase 2 (Homo sapiens, UniProt P00918), provide Ki of "NS(=O)(=O)c1ccc(C(=O)N[C@@H](CC(=O)O)C(=O)O)cc1" please.
Reply: 73
